- Test system: K4 kissing-loop RNA reporter
- testSummary: apparent KD of K4 kissing-loop reporter; higher = weaker reporter binding
- runParameters: Eterna round: R107; input ligand: none
resultType: apparent KD of K4 kissing-loop reporter
Answer by giving the amount and then stating its unit.

Recorded results for 5 sequences are shown here.
>>> testvalue("CGAAGAAAGGUAUGUGGGAUCUGCGCGUAACGAGGACCGGUACGGCCGCCACUCGACGUCGCAUACGGCCCAGUGAUGUUGGGUG [theeternabot_sameState_KL_Trp_A_14]")
"0.0754 µM"
>>> testvalue("UUUAUAUAGUCGGCCGCCACUGAUUUUUAUAUAUGUUUAUGUUUAUACGAGUGAUGUUCGUUAUUCAGGACCGGGACUUUUGUUA [JR_SSTryptoB_Sub016]")
"0.109 µM"
>>> testvalue("AUUUAGACGAGUGAUGUUCGUGUUAUUACAGAGGAUAUGCGUAAUUGCAGAAGGCUGUAUUUAUAUAUGUUAUGUGGUUUUAAAA [whbob_Ex_FMNA__2th185]")
"0.0776 µM"
>>> testvalue("UGUACAUGUCACCGAGUGAUGUUCGACGAUACCAGACUCGAUAGAGUCCCUUGGCAGCGUAACGCAUGCCAAAGUGGCAUGUACU [#SwitchBubble 10 #K4Early]")
"0.721 µM"
>>> testvalue("GUACGCUCUCGAGUGAUGUUCGGUAAUCCUUAGGAUAUCGCUUUUGCGAGAAGGAAGGGAAUGAGGAAACUCGUUCUGAGUGUAC [FMN A 21]")
"0.366 µM"

Next item in the queue.
[ask] Using the record for UAAUGCAUGACGGCCGCCACUAGUACUGGAGUGAUGUUGUGGUACGGCGGCAGUUUAGGGUGGACUAGGACCGGGUCAUGCAUAU [KL-XTryp-B10 #analogue] , report its apparent KD of K4 kissing-loop reporter.
[reply] 0.339 µM

====

- System: MS2 coat protein
- testSummary: apparent KD of MS2 coat protein; higher = weaker reporter binding
- runParameters: Eterna round: R107; input ligand: theophylline 20 uM
Reported apparent KD of MS2 coat protein is given for each of the following sequences.
Answer by giving the amount and then stating its unit.

>>> testvalue("AAACAUGAGGAUCACCCAUGUGGAACCGAAGGAGCGGCGCACAUGCCAGGUAGGUCGCGGGACAUGAGGACAUGAGGAUCACCCA [Same State Arginine A 3]")
"207 nM"
>>> testvalue("AAGACAUGAGGAUCACCCAUGUGGAGGGAUACCAGCCUGUGUGUGGGCCCUUGGCAGCUUAAAUUUAAUUUAAUUAAAUAAAUUU [Same State - Theophylline A]")
"41.6 nM"
>>> testvalue("AGGUACGGAAUCCUCAUGUAGUCGUACCAACGAGGACCGGUACGGCCGCCACUCGAAUAAACAUGAGGAUCACCCAUGUAAUAAU [T''-M-T'-T-MS2]")
"97.3 nM"

[ask] Using the record for GCACCAGGUACGGAUACCAGAAUUUGCCAAUUGGGUGAACAUGAGGAUCACCCAUGUUAUUUCCCUUGGCAGCCGUACCUGGUGC [ETB NP+V+V2 #10] , report its apparent KD of MS2 coat protein.
[reply] 13.2 nM

====

- Test system: MS2 coat protein
- testSummary: apparent KD of MS2 coat protein; designed switch direction (-1 OFF switch, 1 ON switch): -1; higher = weaker reporter binding
- runParameters: input ligand: microRNA oligo, concentration not stated
resultType: apparent KD of MS2 coat protein

>>> testvalue("ACAUGAGGAUCACCCAUGUAAACAUAAUGGCUCAUGUAGAGUCAGGAUAUGCGUGGCUAACAAUCGCAGAAGGGACAAGACUGG [Deportation 29 - Jieux - Exclusion NG 3] (Eterna round: R96, puzzle: Exclusion NG 3)")
"20.2 nM"
>>> testvalue("UGAGUGCUGCGAGGAUAUACAUGAGGAUCACCCAUGUAAUCGUGUGAGGCAAAGCCUCACACGAUGUAGAAGGCGCAGUACUCU [Mat - Exclusion NG 2 - Mod of JL - D23] (Eterna round: R96, puzzle: Exclusion NG 2)")
"11.4 nM"
>>> testvalue("AGUACUAACACGCAUGUGUUAGUACAAUAAGCUUGUGAAACAUGAGGAUCACCCAUGUCCUCAUAAGCUCGUCUUAU [salish99_TOv2_r3_068] (Eterna round: R96, puzzle: Sensor v3, turn-off variant 2)")
"415 nM"

Next item in the queue.
[ask] Can you look up apparent KD of MS2 coat protein on MS2 coat protein for ACAUGUAAUGUAGGAUAUUUUACACAUGAGGAUCACCCAUGUGACCGGAGGCUUUACUAUGAGUAAAAGAAGGGUAUGUACAUG [Ex NG2 #61] (Eterna round: R96, puzzle: Exclusion NG 2) ?
[reply] 33.1 nM

====

- Tested on: K4 kissing-loop RNA reporter
- testSummary: apparent KD of K4 kissing-loop reporter; higher = weaker reporter binding
- runParameters: Eterna round: R107; input ligand: theophylline 20 uM
Could you label it YES if measured apparent KD of K4 kissing-loop reporter is 300 nM or higher, and NO otherwise?

// known answers, use as guide
>>> classlabel("CCAUCGCUAUUCGAUACCAGCUACUUAGUGAUGUUAAGUUUAAAUCCACUGUAGGUGGAAAGCCCUUGGCAGCGAAUAGUGAUGG [Theophylline B K4 24]")
"NO"
>>> classlabel("CCGCUGUACUGCAUUAAGUGAUGUUUAGUGCAGGAUAUCUGGAAACAGAGAAGGGCAUGUACUCGACUUAGCCACUACAGCGGUU")
"NO"
>>> classlabel("AGACUUCACCGAAGGAGCGACGUAGCCUAGUGAUGUUAGGCACGAGAGAAAUCUCGUGUACGUCAGGUAGGUCGCGGUGAAGUCA [Omei KL Arginine B SS C v5]")
"YES"
>>> classlabel("CAUACGCAUGGAGGAUAUGAGAUUUCUCAUAUUAUUUAAUAUUCUCAGUGAUGUUGAGAUUUAAACUCAGAAGGCCAUGUGUAUG [Ex FMN B 6]")
"NO"

[ask] Item CCAGGACGAUGAGGAGGAUGAAUUACUGAAGGAGCGCAUAUGGUUGCAGGUAGGUCGCGGUGAACAAGUAUAGUGAUGUUAUACC [SSArgA.T] with apparent KD of K4 kissing-loop reporter of 300 nM or above?
[reply] YES

[ask] Item AGGAGUGAUGUUCCUACAUAGACGGUCCAACGAGGACCGGUACGGCCGCCACUCGCGACCCAGUGAUGUUGGGAUUCACCGUACA [Exclusion Tryptophan A Gf 14] with apparent KD of K4 kissing-loop reporter of 300 nM or above?
[reply] YES

====

- Tested on: K4 kissing-loop RNA reporter;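 further: bound reporter read as fluorescence of individual clusters on recovered sequencing chips by microscopy, with normalized cluster intensities fitted with a binding model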
- testSummary: apparent KD of K4 kissing-loop reporter; higher = weaker reporter binding
- runParameters: Eterna round: R107; input ligand: arginine 13.2 mM
resultType: apparent KD of K4 kissing-loop reporter (nM)
Write the value in nM as a bare number.

Recorded results for 4 sequences are shown here.
>>> testvalue("GGGAGAAGAGCGGCCGCCACUCAGACAGCAGCAGAAUAUAGUGAUGUUAUAUAGGAAAGGCGGAGGAGGACCGGGCUUAAGAGGG [#20 K4 Tryptophan B Same State]")
303
>>> testvalue("UGGACCUGACUCGAUAAGAGUCAAUGAGAUACCAGUGACGAAAGUCACCCUUGGCAGCUCACUGCCAGUGAUGUUGGUAGGUCCU [#SwitchBubble 3 #StaticStem]")
919
>>> testvalue("GGGUGGCAGGCGGCCGCCACUCUUAGCAGCCAGUGAGUGAUGUUCGUGGCGGAAGAAUGUUCGUAGAGGACCGGGUUUGUUGUUC [Same State Tryptophan B GF 21]")
180
>>> testvalue("UAAUCCUAGUGAUAAUUAUCAAGUGGUGGGCGAGGACCGGUACGGCCGCCACUCGAAUAUGCAGUGAUGUUGUAAUCCGGAUAAU [Exclusion - Tryptophan A (Freestyle 7)]")
636

Next item in the queue.
[ask] Using the record for UUGAUAUGAUAGUAUCUUGUUUGAUAAAGGCAGGAUAUCGUAUAUUUGAGAAGGGCCAUUAUAUGCAGUGAUGUUGCAAAUAAGU [Exclusion FMN A Gf 25] , report its apparent KD of K4 kissing-loop reporter.
[reply] 56.7

====

- Tested on: MS2 coat protein
- testSummary: apparent KD of MS2 coat protein; designed switch direction (-1 OFF switch, 1 ON switch): -1; higher = weaker reporter binding
- runParameters: input ligand: microRNA oligo, concentration not stated
Could you label it true if measured apparent KD of MS2 coat protein is 30 nM or higher, and false otherwise?

>>> classlabel("AUCGUGCAGCAAAGCUGUACGAGUACAUGAGGAUCACCCAUGUAGGAUAUGGUACGCAAAGCGUGCUAGAAGGAUAUGAGAUUA [Mat - Exclusion NG 3 - Mod of JL - D97] (Eterna round: R96, puzzle: Exclusion NG 3)")
"true"

[ask] Item UUCCUCUUAACAUGAGGAUCACCCAUGUAUUAUUUGGUAAUUGAGGAUAUAUUUUUAAUGUUUAUAUAGAAGGCAAAUACAGUU [JR_ExcNG3_Sub094] (Eterna round: R96, puzzle: Exclusion NG 3) with apparent KD of MS2 coat protein of 30 nM or above?
[reply] true

[ask] Item GUACCAAAUGUAGGAUAUGGAUCCGAUUAGGAUCCAGAAGGACAUGAGGAUCACCCAUGUACAUGAGGAUCACCCAUUAGGUAC [Fiskers ExNg1 - 11] (Eterna round: R96, puzzle: Exclusion NG 1) with apparent KD of MS2 coat protein of 30 nM or above?
[reply] false

[ask] Item ACAUGAGGAUCACCCAUGUCCGGCUGGUCCGUCUCGGCUGUCGAGGAUAUAGCUCGGUGUCCGCGCUAGAAGGUGGGAGCUGGU [Aenatbe mod 68] (Eterna round: R96, puzzle: Exclusion NG 3) with apparent KD of MS2 coat protein of 30 nM or above?
[reply] true

[ask] Item AGUCAGACGGUAGGAUAUCCAUAUCGAGUGACCCUUUCAUAACAUGAGGAUCACCCAUGUCGGUGGGAGAAGGGCCGUACGGCG [JL ViennaUCT Atra mod 5] (Eterna round: R96, puzzle: Exclusion NG 2) with apparent KD of MS2 coat protein of 30 nM or above?
[reply] true

[ask] Item AACGUCUAGGUAGGAUAUCCACCAACAGGUGGAAGGAUAUGGAAACAGAAGGUUCGCCAACAGGCGGAGAAGGACCUACGCGUA [pwkr exNG2 2xF7 2xFMN.25] (Eterna round: R96, puzzle: Exclusion NG 2) with apparent KD of MS2 coat protein of 30 nM or above?
[reply] true

[ask] Item ACAUGAGGAUCACCCAUGUCCGGCUGGUCUGUUUCGGCUGUCGAGGAUAUAGUUCGGUGUUCGCGCUAGAAGGCGGGAGCUGGC [Aenatbe mod 59] (Eterna round: R96, puzzle: Exclusion NG 3) with apparent KD of MS2 coat protein of 30 nM or above?
[reply] true

[ask] Item AAAACGUCAGGAUAUACAGAAGAGAUCACAAAAAAAAAAAAACAUGAGGAUCACCCAUGUAGAAGGGACAAAAA [Ex2 Malc#2] (Eterna round: R96, puzzle: Exclusion 2) with apparent KD of MS2 coat protein of 30 nM or above?
[reply] true

[ask] Item UGUUGUUACGCAGGAUAUGAGGAUCACCCAUAGAAGGAUAUCGAAAGAGAAGGUCUGAGGAUUACCCAGAAGGGCGGGUUAACA [pwkr exNG2 2xF5 2xFMN.1] (Eterna round: R96, puzzle: Exclusion NG 2) with apparent KD of MS2 coat protein of 30 nM or above?
[reply] true

[ask] Item AGCUGUGGCCGAGGAUAUUCAGCCUUAAAUACCGACGUAUAGUCGGACAUGAGGAUCACCCAUGUGGAGAAGGCGGUCUCAGCA [Eli eng2 - 046] (Eterna round: R96, puzzle: Exclusion NG 2) with apparent KD of MS2 coat protein of 30 nM or above?
[reply] true

[ask] Item AAAUACCGGUGAGGAUAUUUUUAAUAGAACUUUAUGAUAUACAUGAGGAUCACCCAUGUUACUUUAAAGAAGGCAUCGGAUAAA [Mat - Exclusion NG 2 - Mod of JL - D88] (Eterna round: R96, puzzle: Exclusion NG 2) with apparent KD of MS2 coat protein of 30 nM or above?
[reply] false

[ask] Item AGCGAAGAGACAGGAUAUGAGAAUAGAUAGAACUCAGAAGGGUCACAUGAGGAUCACCCAUGUAAAGUCUUGAGGCUGCGUGGU [Prohibition 9 - Jieux - Exclusion NG 1] (Eterna round: R96, puzzle: Exclusion NG 1) with apparent KD of MS2 coat protein of 30 nM or above?
[reply] true

[ask] Item AUUGUUUAUGUAGGAUAUGCCUGGCGUGCCUUUGCAGAAGGACAUGAGGAUCACCCAUGUAUUGCGGUCUGCGUUCAGAUCGCA [salish99_ExNG1_r4_032] (Eterna round: R96, puzzle: Exclusion NG 1) with apparent KD of MS2 coat protein of 30 nM or above?
[reply] false

[ask] Item GAAAACCGGUGAGGAUAUUUAUAAUAGAGCUUUAUGAUAUACAUGAGGAUCACCCAUGUUACUUUAAAGAAGGCAUCGGAAAAG [Mat - Exclusion NG 2 - Mod of JL - D94] (Eterna round: R96, puzzle: Exclusion NG 2) with apparent KD of MS2 coat protein of 30 nM or above?
[reply] false

[ask] Item UUUAUAAUUUCAAUCUUCGCCAACAAACUUACGCUGGCCACAUGAGGAUCACCCAUGUUUUUUGUUCGUUUUAUUCU [Veorenxere] (Eterna round: R96, puzzle: Sensor v3, turn-off variant 2) with apparent KD of MS2 coat protein of 30 nM or above?
[reply] true

[ask] Item GCUCAGAUGACAGGAUAUCACGCCUGGCAGAUGGGCGACAUGAGGAUCACCCAUGUCCAGCACGAUGAGAAGGGUUAUCGGGCG [Ririorti] (Eterna round: R96, puzzle: Exclusion NG 2) with apparent KD of MS2 coat protein of 30 nM or above?
[reply] true

[ask] Item GUGGGUUACAUGAGGAUCACCCAUGUAUAGUGGGAAAAAAUAUAGGAUAUAAUAUAAAAAUUAUAUUAGAAGGAUAGAGACUAG [AK ExNG3-1] (Eterna round: R96, puzzle: Exclusion NG 3) with apparent KD of MS2 coat protein of 30 nM or above?
[reply] true

// data source = the supplement of paper PMC9170038
